ASSAYED_TARGET: HIV-1 JR-CSF Env N301A (HIV-1 JR-CSF) (UniProt P20871)
ASSAY_METHOD_TEXT: cell-based or functional assay
ASSAY_READOUT: Fold IC50 increase relative to wild-type (fold)
A number alone suffices; assume fold.

IN: Quick one: Fold IC50 increase relative to wild-type of PGT-123 (antibody, V domains shown) VH: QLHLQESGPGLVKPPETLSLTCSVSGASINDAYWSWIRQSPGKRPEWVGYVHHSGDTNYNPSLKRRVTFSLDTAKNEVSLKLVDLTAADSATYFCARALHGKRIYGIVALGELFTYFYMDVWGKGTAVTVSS VL: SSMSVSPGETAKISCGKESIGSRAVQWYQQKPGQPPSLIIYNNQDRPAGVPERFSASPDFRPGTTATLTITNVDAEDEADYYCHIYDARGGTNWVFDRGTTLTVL ?
OUT: 1
